Below, each entry is listed with its recorded MFI.
# measured on: T1, human CD3 on human T cells (Jurkat) (human, UniProt P07766 23-207; P04234 22-171; P09693 23-182)
# T1 construct: whole, on cells; also called huCD3+; cell surface CD3 on human (Jurkat) T cells
# assay text: flow cytometry, Jurkat cells, 0.32 nM antibody
Give a plain numeric answer without units written out.

# example entries with known answers
HuL7H2 (Fab, V domains shown, Humanized Fab expressed in Expi293F; also called VL7 + VH2 humanized Fab) VH: EVQLVESGGGLVQPGGSLKLSCAASGFTFNTYAMNWVRQASGKGLEWVARIRSKYNNYATYYADSVKDRFTISRDDSKNTLYLQMNSLKTEDTAVYYCVRHGNFGNSYVSWFAYWGQGTLVTVSS VL: QAVVTQEPSLTVSPGGTVTLTCRSSTGAVTTSNYANWVQQKPGQAFRGLIGGTNKRAPGTPARFSGSLLGDKAALTISGAQPEDEAEYYCALWYSNLWVFGGGTKLTVL ... 1570
HuL8H2 (Fab, V domains shown, Humanized Fab expressed in Expi293F; also called VL8 + VH2 humanized Fab) VH: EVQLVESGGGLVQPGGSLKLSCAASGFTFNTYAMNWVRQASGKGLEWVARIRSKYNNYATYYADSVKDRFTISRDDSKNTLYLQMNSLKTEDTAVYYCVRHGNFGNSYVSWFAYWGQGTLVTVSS VL: QAVVTQEPSLTVSPGGTVTLTCGSSTGAVTTSNYANWVQQKPDHLFRGLIGGTNKRAPGTPARFSGSLLGGKAALTISGAQPEDEAEYYCALWYSNLWVFGGGTKLTVL ... 837

Q: Reported MFI, binder HuL6H2 (Fab, V domains shown, Humanized Fab expressed in Expi293F; also called VL6 + VH2 humanized Fab) VH: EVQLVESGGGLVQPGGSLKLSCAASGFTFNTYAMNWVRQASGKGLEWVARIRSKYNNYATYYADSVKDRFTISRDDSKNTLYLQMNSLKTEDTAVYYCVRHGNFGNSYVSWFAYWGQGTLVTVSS VL: QAVVTQEPSLTVSPGGTVTLTCRSSTGAVTTSNYANWFQQKPDHLPRTLIYGTNKRAPGTPARFSGSLLGDKAALTISGAQPEDEAEYYCALWYSNLWVFGGGTKLTVL : ____
Result: 572
